B1: library; numbered along this chain (parent)
chain: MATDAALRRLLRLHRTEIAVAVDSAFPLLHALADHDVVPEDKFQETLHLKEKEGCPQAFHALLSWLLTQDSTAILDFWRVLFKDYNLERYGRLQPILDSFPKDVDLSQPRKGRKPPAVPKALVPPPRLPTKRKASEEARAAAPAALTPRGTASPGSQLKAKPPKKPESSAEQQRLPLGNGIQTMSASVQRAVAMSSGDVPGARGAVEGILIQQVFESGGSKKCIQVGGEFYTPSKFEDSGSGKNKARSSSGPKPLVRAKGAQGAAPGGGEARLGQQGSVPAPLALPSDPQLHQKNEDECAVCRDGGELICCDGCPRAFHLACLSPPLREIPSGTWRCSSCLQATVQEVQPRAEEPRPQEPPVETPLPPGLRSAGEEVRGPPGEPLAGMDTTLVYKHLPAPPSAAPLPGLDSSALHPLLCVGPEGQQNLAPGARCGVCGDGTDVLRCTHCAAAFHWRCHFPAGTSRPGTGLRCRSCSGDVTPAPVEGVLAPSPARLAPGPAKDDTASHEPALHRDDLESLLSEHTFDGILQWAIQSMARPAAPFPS

variants of: B1; experiment: AIRE transcriptional activation functional score (insulin promoter-GFP; nonsense median 0, synonymous median 1) (normalised score); higher = higher AIRE activity (more reporter activation); conditions: with insulin promoter-GFP reporter in HEK293
Reported AIRE transcriptional activation functional score is given for each of the following variants.

## Input Write down AIRE transcriptional activation functional score measured for item S195A
## Output 1.31

## Input Write down AIRE transcriptional activation functional score measured for item C457V
## Output 0.0733

## Input Write down AIRE transcriptional activation functional score measured for item S372G
## Output 0.89

---
## Input Write down AIRE transcriptional activation functional score measured for item N244L
## Output 0.301

## Input Write down AIRE transcriptional activation functional score measured for item G242P
## Output 0.412

## Input Write down AIRE transcriptional activation functional score measured for item P280C
## Output 0.574

## Input Write down AIRE transcriptional activation functional score measured for item L175F
## Output 1.16
